Assay: in vitro
Conditions: human, CC50 (uM) [SG]
Entries annotated with measured CC50
Write the number in µM without appending the unit.

As a guide, the following entries are already answered.
[
  {
    "molecule": "CCCCS(=O)(=O)Nc1ccc2c(c1)[C@@H](NC)CC[C@H]2c1ccc(Cl)c(Cl)c1",
    "measurement_unit": "µM",
    "recorded_measurement": 3.63
  },
  {
    "molecule": "CN[C@H]1CC[C@@H](c2ccc(Cl)c(Cl)c2)c2ccc(CS(=O)(=O)c3ccccc3)cc21",
    "measurement_unit": "µM",
    "recorded_measurement": 6.7
  },
  {
    "molecule": "CNCc1cc(Br)ccc1Oc1ccc(SC)cc1",
    "measurement_unit": "µM",
    "recorded_measurement": 35.5
  },
  {
    "molecule": "CNCc1cc(Br)ccc1Oc1cccc(OC)c1",
    "measurement_unit": "µM",
    "recorded_measurement": 46.9
  }
]

Field CC50 (entry CN[C@H]1CC[C@@H](c2ccc(Cl)c(Cl)c2)c2ccc(C(N)=S)cc21 [Sertraline A-Ring Thiocarboxamide] ) reads 13.2

Field CC50 (entry CSc1ccc(Oc2ccc(S(N)(=O)=O)cc2CN(C)CCCN(C)C)cc1C ) reads 15

Field CC50 (entry CN(C)[C@H]1CC[C@@H](c2ccc(Cl)c(Cl)c2)c2ccc(C(=O)NCC3CC3)cc21 ) reads 19.4

###

System: Huh7 cells expressing a subgenomic RNA replicon of Con1 (genotype 1b) sequence origin
Test: microbe, parasite or virus in culture
Conditions: Hepatitis C virus, Huh-7
value_type: IC50 (µM)
Write the number in µM without appending the unit.

[
  {
    "molecule": "COc1cc(C(=O)NS(=O)(=O)c2ccccc2C)ccc1Cc1cn(C)c2ccc(NC(=O)OC3CCCC3)cc12 [Zafirlukast, reference compound]",
    "recorded_measurement": 18.5
  },
  {
    "molecule": "C[C@@]1(O)[C@H](O)[C@@H](CO)O[C@H]1n1ccc(N)nc1=O [2′-C-Methylcytidine, 2′-C-methylcytidine, reference compound]",
    "recorded_measurement": 1.63
  }
]

Now let's try a different one.
Field IC50 (entry CC1=C(/C=C/C(C)=C/C=C/C(C)=C/C(=O)Nc2ccc(O)cc2)C(C)(C)CCC1 [Fenretinide, reference compound] ) reads 2.26

###

Hi! I'm sharing some pIC50 results obtained with Huh7 cells expressing a subgenomic RNA replicon of Con1 (genotype 1b) sequence origin.
In plain terms, pIC50 is the concentration in mol/L turned into minus its base-10 logarithm.

[
  {
    "compound": "CC(=O)OC[C@H]1O[C@@H]([S-])[C@H](OC(C)=O)[C@@H](OC(C)=O)[C@@H]1OC(C)=O.CCP(CC)CC.[Au+] [Auranofin, reference compound]",
    "pIC50": 5.97
  },
  {
    "compound": "COc1ccc(C[C@H]2NC[C@H](O)[C@H]2OC(C)=O)cc1 [Anisomycin, reference compound]",
    "pIC50": 6.22
  },
  {
    "compound": "N#CC(C#N)=Cc1cc(O)c(O)c(O)c1 [Tyrphostin 25, tyrphostin 25, reference compound]",
    "pIC50": 4.80
  },
  {
    "compound": "Cc1ccc(S(=O)(=O)/C=C/C#N)cc1 [Bay 11-7082, reference compound]",
    "pIC50": 4.82
  },
  {
    "compound": "N#C/C(=C\\c1ccc(O)c(O)c1)C(=O)Nc1ccccc1 [AG-494, AG 494, reference compound]",
    "pIC50": 5.46
  },
  {
    "compound": "O=[N+]([O-])c1ccc2nc(N3CCNCC3)ccc2c1 [6-Nitroquipazine, reference compound]",
    "pIC50": 4.78
  }
]

Measured on Huh7 cells expressing a subgenomic RNA replicon of Con1 (genotype 1b) sequence origin, O=C1Nc2ccc3ncsc3c2/C1=C/c1cnc[nH]1 [PKR inhibitor, reference compound] has a documented pIC50 of 5.76

Measured on Huh7 cells expressing a subgenomic RNA replicon of Con1 (genotype 1b) sequence origin, CCN(CC)c1ccc(C(=C2C=CC(=[N+](CC)CC)C=C2)c2cc(S(=O)(=O)O)ccc2S(=O)(=O)[O-])cc1 [Isosulfan Blue, reference compound] has a documented pIC50 of 4.60

Measured on Huh7 cells expressing a subgenomic RNA replicon of Con1 (genotype 1b) sequence origin, Cc1ccc(NCCCc2ccccc2)c(N)c1 [JSH-23, reference compound] has a documented pIC50 of 5.59

Measured on Huh7 cells expressing a subgenomic RNA replicon of Con1 (genotype 1b) sequence origin, C[C@@H]1C[C@H]2[C@@H]3CCC4=CC(=O)C=C[C@]4(C)[C@@]3(Cl)[C@@H](O)C[C@]2(C)[C@@]1(O)C(=O)CCl [Mometasone (e.g., furoate), mometasone, reference compound] has a documented pIC50 of 4.95

Measured on Huh7 cells expressing a subgenomic RNA replicon of Con1 (genotype 1b) sequence origin, O=C(O)CN(CC(=O)O)c1ccccc1OCCOc1ccccc1N(CC(=O)O)CC(=O)O [reference compound] has a documented pIC50 of 4.84

Measured on Huh7 cells expressing a subgenomic RNA replicon of Con1 (genotype 1b) sequence origin, COc1cc2ncnc(Nc3cccc(Cl)c3)c2cc1OC [Tyrphostin Ag 1478, tyrphostin AG 1478, reference compound] has a documented pIC50 of 5.47

Measured on Huh7 cells expressing a subgenomic RNA replicon of Con1 (genotype 1b) sequence origin, CC(=O)ON=C1C(=O)N(Cc2cc(Cl)ccc2Cl)c2ccc(Cl)cc21 [UCH-L1 inhibitor, reference compound] has a documented pIC50 of 4.76

Measured on Huh7 cells expressing a subgenomic RNA replicon of Con1 (genotype 1b) sequence origin, Nc1nc(-c2nn(Cc3ccccc3F)c3ncccc23)ncc1C1CC1 [Bay 41-2272, reference compound] has a documented pIC50 of 6.12

###

Test system: Huh7 cells expressing a subgenomic RNA replicon of Con1 (genotype 1b) sequence origin
Experiment: microbe, parasite or virus in culture
Conditions: Hepatitis C virus, Huh-7
Entries annotated with measured IC90
Write the number in µM without appending the unit.

[
  {
    "molecule": "CSc1ccc(Oc2ccc(S(N)(=O)=O)cc2CN(C)CCN(C)C)cc1C [Compound 97]",
    "value_type": "IC90",
    "measurement_unit": "µM",
    "recorded_measurement": 14
  },
  {
    "molecule": "CN(C)[C@H]1CC[C@@H](c2ccc(Cl)c(Cl)c2)c2ccc(C(N)=O)cc21",
    "value_type": "IC90",
    "measurement_unit": "µM",
    "recorded_measurement": 8.77
  },
  {
    "molecule": "CN[C@H]1CC[C@@H](c2ccc(Cl)c(Cl)c2)c2ccc(NC(C)=O)cc21 [Sertraline A-Ring Reverse Carboxamide]",
    "value_type": "IC90",
    "measurement_unit": "µM",
    "recorded_measurement": 7.26
  },
  {
    "molecule": "CSc1ccc(Oc2ccc(S(N)(=O)=O)cc2CN2CCCCC2)cc1C [Compound 73]",
    "value_type": "IC90",
    "measurement_unit": "µM",
    "recorded_measurement": 13.6
  }
]

Now let's try a different one.
Field IC90 (entry CSc1ccc(Oc2ccc(S(N)(=O)=O)cc2CN2CCN(C3CCN(C)CC3)CC2)cc1C [Compound 90] ) reads 7.48

###

System: Huh7 cells expressing a subgenomic RNA replicon of Con1 (genotype 1b) sequence origin
Assay: microbe, parasite or virus in culture
Conditions: Hepatitis C virus, Huh-7
pIC50: −log10 of the molar value. Where a name gives a salt, the structure may show the parent alone.
Use pIC50 to assign classes; range list: bin 0 (below 5), bin 1 (5 to below 6), bin 2 (6 or more)

[
  {
    "compound": "CCCCOc1cc(C(=O)OCCN(CC)CC)ccc1N [Benoxinate (e.g., hydrochloride), benoxinate, reference compound]",
    "assigned_category": "bin 1"
  },
  {
    "compound": "CCN(CCCCOC(=O)c1ccc(OC)c(OC)c1)C(C)Cc1ccc(OC)cc1 (stereo not shown) [Mebeverine (e.g., hydrochloride), Mebeverine, reference compound]",
    "assigned_category": "bin 0"
  },
  {
    "compound": "Oc1ccc(O)cc1 [Hydroquinone, reference compound]",
    "assigned_category": "bin 0"
  },
  {
    "compound": "COc1cc2c(cc1OC)-c1c/c(=N\\c3c(C)cc(C)cc3C)n(C)c(=O)n1CC2 [Trequinsin (e.g., hydrochloride), Trequinsin, reference compound]",
    "assigned_category": "bin 1"
  }
]

Ask: Class for CN1C[C@H](C(=O)N[C@]2(C)O[C@@]3(O)[C@@H]4CCCN4C(=O)[C@H](Cc4ccccc4)N3C2=O)C[C@@H]2c3cccc4[nH]cc(c34)C[C@H]21 [Dihydroergotamine (e.g., mesylate), dihydroergotamine, reference compound] ?
Reply: bin 0

Ask: Class for Nc1nc[nH]n1 [Amitrole] ?
Reply: bin 0

Ask: Class for CC(=O)Oc1ccccc1C(=O)Nc1ncc([N+](=O)[O-])s1 [Nitazoxanide, nitazoxanide, reference compound] ?
Reply: bin 0

Ask: Class for CSc1ccc(Oc2ccc(S(N)(=O)=O)cc2CN(C)C)cc1 [Compound 46] ?
Reply: bin 0

Ask: Class for CNCc1cc(S(N)(=O)=O)ccc1Oc1ccc(SC)c(C)c1 [Compound 48] ?
Reply: bin 1

Ask: Class for CC(C)C[C@H]1C(=O)N2CCC[C@H]2[C@]2(O)O[C@](NC(=O)[C@@H]3C=C4c5cccc6[nH]c(Br)c(c56)C[C@H]4N(C)C3)(C(C)C)C(=O)N12 [Bromocriptine (e.g., mesylate), bromocriptine, reference compound] ?
Reply: bin 1

Ask: Class for Nc1ccc(OCCCCCOc2ccc(N)cc2)cc1 [1,5-Bis(4-aminophenoxy)pentane, reference compound] ?
Reply: bin 1

Ask: Class for CC[C@@H](C(=O)O)[C@@H]1O[C@@H]([C@@H](C)[C@H](O)[C@H](C)C(=O)[C@H](CC)[C@H]2O[C@]3(C=C[C@@H](O)[C@]4(CC[C@@](C)([C@H]5CC[C@](O)(CC)[C@H](C)O5)O4)O3)[C@H](C)C[C@@H]2C)[C@@H](C)C[C@@H]1C [Narasin, reference compound] ?
Reply: bin 2

Ask: Class for COC1CC[C@@H](c2ccc(Cl)c(Cl)c2)c2ccccc21 (stereo partly drawn) [Methoxy 4S-Sertraline] ?
Reply: bin 0

Ask: Class for CN(C)C(=S)SSC(=S)N(C)C [Thiram, thiram] ?
Reply: bin 1

Ask: Class for CC[C@@]1(O)C(=O)OCc2c1cc1n(c2=O)Cc2cc3ccccc3nc2-1 [Camptothecin, camptothecin, reference compound] ?
Reply: bin 2

Ask: Class for CC(C(O)c1ccc(O)cc1)N1CCC(Cc2ccccc2)CC1 (stereo not shown) [Ifenprodil (e.g., tartrate), Ifenprodil, reference compound] ?
Reply: bin 1

Ask: Class for CC[C@H]1CN2CCc3cc(OC)c(OC)cc3[C@@H]2C[C@@H]1C[C@H]1NCCc2cc(OC)c(OC)cc21 [Emetine (e.g., dihydrochloride hydrate), Emetine, reference compound] ?
Reply: bin 2

Ask: Class for N[C@H](Cc1cc(I)c(Oc2cc(I)c(O)c(I)c2)c(I)c1)C(=O)O [Dextrothyroxine (e.g., sodium), dextrothyroxine, reference compound] ?
Reply: bin 1

Ask: Class for C/C=C(/C(=C/C)c1ccc(O)cc1)c1ccc(O)cc1 [Dienestrol, reference compound] ?
Reply: bin 0

Ask: Class for CCCOc1ccc2nc(NC(=O)OC)[nH]c2c1 [Oxibendazole, reference compound] ?
Reply: bin 2

Ask: Class for Nc1cccc(OCCCCCOc2cccc(N)c2)c1 [3,3′-(Pentamethylenedioxy)dianiline, reference compound] ?
Reply: bin 1

Ask: Class for C[C@]12Cc3c[nH]nc3C[C@@H]1CC[C@@H]1[C@@H]2CC[C@@]2(C)[C@H]1CC[C@]2(C)O [Stanozolol, stanozolol, reference compound] ?
Reply: bin 0

Ask: Class for COc1ccc2c(c1OC)C(=O)O[C@@H]2[C@H]1c2c(cc3c(c2OC)OCO3)CCN1C [Noscapine, reference compound] ?
Reply: bin 0

Data provenance: patent US20100009970A1
